test system: RIVA; experiment: growth inhibition by drug plus 177Lu-lilotomab satetraxetan (1 - RLU/untreated control) (fraction); higher = stronger inhibition; conditions: 10 nM; time (day): 5; 177Lu-lilotomab satetraxetan 0.5 ug/ml
Counter-ions that a name gives are not always drawn.
quantity_name: growth inhibition by drug plus 177Lu-lilotomab satetraxetan

[
  {
    "molecule": "CC1(CN2CCC(n3c(=O)[nH]c4ccccc43)CC2)OCc2ccccc2-n2cccc21 (configuration not stated)",
    "recorded_result": 0.612
  },
  {
    "molecule": "N#CC(c1ccnc(NCCc2cccnc2)n1)c1nc2ccccc2s1 (configuration not stated)",
    "recorded_result": 0.467
  },
  {
    "molecule": "COc1ccc2c3n(c(=NC(=O)c4cccnc4)nc2c1OC)CCN3",
    "recorded_result": 0.559
  },
  {
    "molecule": "C=CCn1c(=O)c2cnc(Nc3ccc(N4CCN(C)CC4)cc3)nc2n1-c1cccc(C(C)(C)O)n1",
    "recorded_result": 0.532
  },
  {
    "molecule": "C=CC(=O)N1CCC[C@@H](n2nc(-c3ccc(Oc4ccccc4)cc3)c3c(N)ncnc32)C1",
    "recorded_result": 0.848
  },
  {
    "molecule": "Cc1cnc(-c2cnc(NCCNc3ccc(C#N)cn3)nc2-c2ccc(Cl)cc2Cl)[nH]1",
    "recorded_result": 0.613
  },
  {
    "molecule": "Nc1ccn([C@@H]2O[C@H](CO)[C@@H](O)[C@@H]2O)c(=O)n1",
    "recorded_result": 0.632
  },
  {
    "molecule": "C[C@@H]1C[C@H]2[C@@H]3CCC4=CC(=O)C=C[C@]4(C)[C@@]3(F)[C@@H](O)C[C@]2(C)[C@@]1(O)C(=O)CO",
    "recorded_result": 0.484
  },
  {
    "molecule": "Cc1nc(-c2ccc(OCC(C)C)c(C#N)c2)sc1C(=O)O",
    "recorded_result": 0.513
  },
  {
    "molecule": "CC(C)n1nc(-c2ccc3oc(N)nc3c2)c2c(N)ncnc21",
    "recorded_result": 0.586
  },
  {
    "molecule": "COc1cc2/c(=N/c3ccc(Br)cc3F)nc[nH]c2cc1OCC1CCN(C)CC1 [Vandetanib (Zactima)]",
    "recorded_result": 0.516
  },
  {
    "molecule": "OC[C@H]1O[C@@H](n2cnc3c2N=CNC[C@H]3O)C[C@@H]1O",
    "recorded_result": 0.557
  },
  {
    "molecule": "C[N+](C)([O-])CCNc1ccc(NCC[N+](C)(C)[O-])c2c1C(=O)c1c(O)ccc(O)c1C2=O [Banoxantrone dihydrochloride]",
    "recorded_result": 0.484
  },
  {
    "molecule": "CC(C)OC(=O)C1=CN(C(=O)c2ccc(F)c(F)c2)CC(C)(C)c2c1[nH]c1ccccc21",
    "recorded_result": 0.614
  },
  {
    "molecule": "O=C(NC1CCNCC1)c1n[nH]cc1NC(=O)c1c(Cl)cccc1Cl",
    "recorded_result": 0.593
  },
  {
    "molecule": "COc1c(C)cnc(Cn2cnc3c(Cl)nc(N)nc32)c1C",
    "recorded_result": 0.6
  },
  {
    "molecule": "Fc1cc(-c2cccc3ncc(-c4cnn(C5CCNCC5)c4)nc23)cc(F)c1CN1CCOCC1",
    "recorded_result": 0.59
  },
  {
    "molecule": "O=C(O)CCCc1ccccc1 [4-Phenylbutyrate]",
    "recorded_result": 0.547
  },
  {
    "molecule": "CCn1c(-c2nonc2N)nc2cnc(Oc3cccc(NC(=O)c4ccc(OCCN5CCOCC5)cc4)c3)cc21",
    "recorded_result": 0.558
  },
  {
    "molecule": "COc1cc2c(cc1O)CC[C@@H]1[C@@H]2CC[C@]2(C)[C@@H](O)CC[C@@H]12",
    "recorded_result": 0.548
  },
  {
    "molecule": "CCc1c2c(nc3ccc(OC(=O)N4CCC(N5CCCCC5)CC4)cc13)-c1cc3c(c(=O)n1C2)COC(=O)[C@]3(O)CC [Irinotecan HCl Trihydrate (Campto)]",
    "recorded_result": 0.475
  },
  {
    "molecule": "COc1cc([C@@H]2c3cc4c(cc3[C@@H](O[C@@H]3O[C@@H]5CO[C@@H](C)O[C@H]5[C@H](O)[C@H]3O)[C@H]3COC(=O)[C@H]23)OCO4)cc(OC)c1O [Etoposide (VP-16)]",
    "recorded_result": 0.549
  },
  {
    "molecule": "Cc1[nH]c(/C=C2\\C(=O)Nc3ccc(S(=O)(=O)Cc4c(Cl)cccc4Cl)cc32)c(C)c1C(=O)N1CCC[C@@H]1CN1CCCC1",
    "recorded_result": 0.464
  },
  {
    "molecule": "COC(=O)c1ccc2c(C(=Nc3ccc(N(C)C(=O)CN4CCN(C)CC4)cc3)c3ccccc3)c(O)[nH]c2c1",
    "recorded_result": 0.461
  },
  {
    "molecule": "c1ccc(-c2nn3c(c2-c2ccnc4cc(OCCN5CCOCC5)ccc24)CCC3)nc1",
    "recorded_result": 0.585
  },
  {
    "molecule": "CC[C@@]1(O)C(=O)OCc2c1cc1n(c2=O)Cc2cc3c(CN(C)C)c(O)ccc3nc2-1 [Topotecan HCl]",
    "recorded_result": 0.913
  },
  {
    "molecule": "N#Cc1c(O)c2c(-c3ccc(-c4ccccc4O)cc3)csc2[nH]c1=O",
    "recorded_result": 0.615
  },
  {
    "molecule": "Cc1cccc(-c2nn3c(c2-c2ccnc4ccc(C(N)=O)cc24)CCC3)n1",
    "recorded_result": 0.502
  },
  {
    "molecule": "Cc1[nH]c2ccccc2c1CCNCc1ccc(/C=C/C(=O)NO)cc1",
    "recorded_result": 0.939
  },
  {
    "molecule": "Cc1cnc(Nc2ccc(OCCN3CCCC3)cc2)nc1Nc1cccc(S(=O)(=O)NC(C)(C)C)c1",
    "recorded_result": 0.468
  },
  {
    "molecule": "CN(C)CCOc1ccc(-c2nc(-c3ccncc3)c(-c3ccc4c(c3)CC/C4=N\\O)[nH]2)cc1",
    "recorded_result": 0.536
  },
  {
    "molecule": "CO[C@H]1C[C@@H]2CC[C@@H](C)[C@@](O)(O2)C(=O)C(=O)N2CCCC[C@H]2C(=O)O[C@H]([C@H](C)C[C@@H]2CC[C@@H](OCCO)[C@H](OC)C2)CC(=O)[C@H](C)/C=C(\\C)[C@@H](O)[C@@H](OC)C(=O)[C@H](C)C[C@H](C)/C=C/C=C/C=C/1C [Everolimus (RAD001)]",
    "recorded_result": 0.833
  }
]
